- TESTED TARGET: MAP kinase-interacting serine/threonine-protein kinase 2 (Homo sapiens)
- TEST PROTOCOL: Inhibition of human recombinant full length GST-tagged MNK2 expressed in insect cells assessed as residual activity at 10 uM using S6 peptide as substrate in presence of [gamma-33P]-ATP incubated for 60 mins by radiometric scintillation counting method relative to control
- Sequence (Q9HBH9 whole entry, looked up): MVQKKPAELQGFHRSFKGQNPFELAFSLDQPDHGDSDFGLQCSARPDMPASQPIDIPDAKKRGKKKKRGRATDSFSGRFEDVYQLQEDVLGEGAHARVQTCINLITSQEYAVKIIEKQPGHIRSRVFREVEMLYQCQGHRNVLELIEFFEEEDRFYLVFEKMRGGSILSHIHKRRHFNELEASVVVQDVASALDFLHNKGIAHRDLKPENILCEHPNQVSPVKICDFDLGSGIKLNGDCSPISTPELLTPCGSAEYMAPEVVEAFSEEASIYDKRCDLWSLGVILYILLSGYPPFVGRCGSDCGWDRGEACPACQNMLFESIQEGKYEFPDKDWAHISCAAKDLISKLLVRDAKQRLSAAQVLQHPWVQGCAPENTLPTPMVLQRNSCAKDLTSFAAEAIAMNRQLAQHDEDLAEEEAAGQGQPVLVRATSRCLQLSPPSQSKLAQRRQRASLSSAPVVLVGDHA
READOUT TYPE: Activity

Please tell me the measured Activity for `COc1cccc(-c2cc(-c3ccc(F)cc3)c3c(N)n[nH]c3n2)c1` ; system: MAP kinase-interacting serine/threonine-protein kinase 2 (Homo sapiens).
82%

Please tell me the measured Activity for `COc1ccc(-c2cc(-c3ccc(OC)cc3)c3c(N)nn(C)c3n2)cc1` ; system: MAP kinase-interacting serine/threonine-protein kinase 2 (Homo sapiens).
154%

Please tell me the measured Activity for `Nc1n[nH]c2nc(-c3ccccc3)cc(-c3ccc(F)cc3)c12` ; system: MAP kinase-interacting serine/threonine-protein kinase 2 (Homo sapiens).
62%

Please tell me the measured Activity for `COc1cccc(-c2cc(-c3ccccc3)c3c(N)n[nH]c3n2)c1` ; system: MAP kinase-interacting serine/threonine-protein kinase 2 (Homo sapiens).
74%

Please tell me the measured Activity for `COc1ccc(-c2cc(-c3ccccc3)nc3c2c(N)nn3C)cc1` ; system: MAP kinase-interacting serine/threonine-protein kinase 2 (Homo sapiens).
145%

Please tell me the measured Activity for `Nc1c2c(-c3ccccc3)c(Cl)c(Cl)nc2nn1-c1ccccc1` ; system: MAP kinase-interacting serine/threonine-protein kinase 2 (Homo sapiens).
102%

Please tell me the measured Activity for `COc1ccc(-c2cc(-c3ccccc3OC)nc3[nH]nc(N)c23)cc1` ; system: MAP kinase-interacting serine/threonine-protein kinase 2 (Homo sapiens).
109%

Please tell me the measured Activity for `Nc1c2cc(-c3c(Cl)cccc3Cl)c(Cl)nc2nn1-c1ccccc1` ; system: MAP kinase-interacting serine/threonine-protein kinase 2 (Homo sapiens).
99%

Please tell me the measured Activity for `COc1ccc(-c2cc(-c3cccc(OC)c3)nc3[nH]nc(N)c23)cc1` ; system: MAP kinase-interacting serine/threonine-protein kinase 2 (Homo sapiens).
92%

Please tell me the measured Activity for `COc1ccccc1-c1cc(-c2ccc(C)cc2)c2c(N)n[nH]c2n1` ; system: MAP kinase-interacting serine/threonine-protein kinase 2 (Homo sapiens).
123%

Please tell me the measured Activity for `Cn1nc(N)c2c(-c3ccccc3)cc(-c3ccccc3)nc21` ; system: MAP kinase-interacting serine/threonine-protein kinase 2 (Homo sapiens).
117%

Please tell me the measured Activity for `COc1ccc(-c2cc(-c3ccc(C)cc3)c3c(N)n[nH]c3n2)cc1` ; system: MAP kinase-interacting serine/threonine-protein kinase 2 (Homo sapiens).
82%

Please tell me the measured Activity for `Nc1n[nH]c2nc(-c3ccccc3)cc(-c3ccccc3)c12` ; system: MAP kinase-interacting serine/threonine-protein kinase 2 (Homo sapiens).
52%

Please tell me the measured Activity for `COc1ccc(-c2cc(-c3ccccc3)nc3[nH]nc(N)c23)cc1` ; system: MAP kinase-interacting serine/threonine-protein kinase 2 (Homo sapiens).
74%

Please tell me the measured Activity for `Cn1nc(N)c2cccnc21` ; system: MAP kinase-interacting serine/threonine-protein kinase 2 (Homo sapiens).
95%

Please tell me the measured Activity for `Nc1n[nH]c2ncccc12` ; system: MAP kinase-interacting serine/threonine-protein kinase 2 (Homo sapiens).
102%

Please tell me the measured Activity for `COc1ccc(-c2cc(-c3ccc(OC)cc3)c3c(N)n[nH]c3n2)cc1` ; system: MAP kinase-interacting serine/threonine-protein kinase 2 (Homo sapiens).
101%

---

- TESTED TARGET: MAP kinase-interacting serine/threonine-protein kinase 1 (Homo sapiens, UniProt Q9BUB5)
- TEST PROTOCOL: Inhibition of human recombinant full length GST-tagged MNK1 expressed in baculovirus expression system using S6 peptide as substrate in presence of [gamma-33P]-ATP incubated for 60 mins by radiometric scintillation counting method
- Sequence (Q9BUB5 whole entry): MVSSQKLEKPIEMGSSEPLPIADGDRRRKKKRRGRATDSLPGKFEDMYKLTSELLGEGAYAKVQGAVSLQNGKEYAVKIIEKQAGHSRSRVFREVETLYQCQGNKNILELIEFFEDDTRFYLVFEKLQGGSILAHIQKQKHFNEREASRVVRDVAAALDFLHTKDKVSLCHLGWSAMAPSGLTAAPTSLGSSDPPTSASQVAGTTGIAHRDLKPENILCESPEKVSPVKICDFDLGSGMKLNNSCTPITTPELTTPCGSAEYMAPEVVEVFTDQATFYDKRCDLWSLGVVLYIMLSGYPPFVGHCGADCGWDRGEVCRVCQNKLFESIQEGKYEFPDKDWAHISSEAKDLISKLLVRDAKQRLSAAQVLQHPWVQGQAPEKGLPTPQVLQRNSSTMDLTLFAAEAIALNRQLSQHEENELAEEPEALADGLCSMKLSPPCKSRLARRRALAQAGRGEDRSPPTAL
Exercise: for every item that follows, state its recorded IC50.
Numeric answer plus unit only.

Return the recorded IC50 value; entry: `Nc1n[nH]c2nc(-c3ccccc3)cc(-c3ccc(F)cc3)c12`
1300 nM

Return the recorded IC50 value; entry: `COc1cccc(-c2cc(-c3ccccc3)c3c(N)n[nH]c3n2)c1`
4200 nM

---

- TESTED TARGET: MAP kinase-interacting serine/threonine-protein kinase 2 (Homo sapiens)
- TEST PROTOCOL: Inhibition of human recombinant full length GST-tagged MNK2 expressed in insect cells using S6 peptide as substrate in presence of [gamma-33P]-ATP incubated for 60 mins by radiometric scintillation counting method
- Sequence (Q9HBH9 whole entry): as the sequence (Q9HBH9 whole entry, looked up) above
Exercise: for every item that follows, state its recorded IC50.
API: value field is a number in µM; no unit string.

Return the recorded IC50 value; entry: `Nc1n[nH]c2nc(-c3ccccc3)cc(-c3ccc(F)cc3)c12`
4.1

Return the recorded IC50 value; entry: `COc1cccc(-c2cc(-c3ccccc3)c3c(N)n[nH]c3n2)c1`
22

---

- TESTED TARGET: MAP kinase-interacting serine/threonine-protein kinase 1 (Homo sapiens, UniProt Q9BUB5)
- TEST PROTOCOL: Inhibition of human recombinant full length GST-tagged MNK1 expressed in baculovirus expression system assessed as residual activity at 10 uM using S6 peptide as substrate in presence of [gamma-33P]-ATP incubated for 60 mins by radiometric scintillation counting method relative to control
- Sequence (Q9BUB5 whole entry, looked up): as the sequence (Q9BUB5 whole entry) above
Class assignment keyed on Activity, ranges I (below 40%), II (40% to below 90%), III (90% or more)

Any idea which band `Nc1c2cc(-c3c(Cl)cccc3Cl)c(Cl)nc2nn1-c1ccccc1` is in?
III

Any idea which band `Cn1nc(N)c2c(-c3ccccc3)cc(-c3ccccc3)nc21` is in?
II

Any idea which band `COc1ccc(-c2cc(-c3ccccc3OC)nc3[nH]nc(N)c23)cc1` is in?
II

Any idea which band `Nc1n[nH]c2nc(-c3ccccc3)cc(-c3ccc(F)cc3)c12` is in?
I

Any idea which band `Nc1n[nH]c2ncccc12` is in?
III

Any idea which band `COc1cccc(-c2cc(-c3ccccc3)c3c(N)n[nH]c3n2)c1` is in?
I

Any idea which band `COc1ccc(-c2cc(-c3ccc(OC)cc3)c3c(N)n[nH]c3n2)cc1` is in?
II

Any idea which band `Nc1n[nH]c2nc(-c3ccccc3)cc(-c3ccccc3)c12` is in?
I

Any idea which band `COc1ccc(-c2cc(-c3ccc(C)cc3)c3c(N)n[nH]c3n2)cc1` is in?
II

Any idea which band `COc1ccc(-c2cc(-c3ccc(OC)cc3)c3c(N)nn(C)c3n2)cc1` is in?
III

Any idea which band `Nc1c2c(-c3ccccc3)c(Cl)c(Cl)nc2nn1-c1ccccc1` is in?
III

Any idea which band `COc1cccc(-c2cc(-c3ccc(F)cc3)c3c(N)n[nH]c3n2)c1` is in?
II

Any idea which band `COc1ccccc1-c1cc(-c2ccc(C)cc2)c2c(N)n[nH]c2n1` is in?
II

Any idea which band `Cn1nc(N)c2cccnc21` is in?
III

Any idea which band `COc1ccc(-c2cc(-c3ccccc3)nc3[nH]nc(N)c23)cc1` is in?
I

Any idea which band `COc1ccc(-c2cc(-c3ccccc3)nc3c2c(N)nn3C)cc1` is in?
III

Data origin: ChEMBL document CHEMBL5154861
